- TEST_SUMMARY: Cytotoxicity against human nasopharyngeal carcinoma cells
- Assay type: functional
- CONDITION_LABEL: Nasopharyngeal carcinoma cell, read-out: ED50 (the source's name)
QUANTITY_MEASURED: EC50 (µg/mL)
Give the value in µg/mL but do not write µg/mL after it.

Guide cases for EC50, answers given:
Q: Fill blank: measured EC50 of the compound CCCCCCCCCCCC(=O)O[C@H]1[C@H](O[C@@H]2[C@H]3OC(=O)CCCCCCCCC[C@H](CCCCC)O[C@@H]4O[C@H](C)[C@H](O)[C@H](O)[C@H]4O[C@H](O[C@H]2C)[C@@H]3O)O[C@@H](C)[C@H](O[C@@H]2O[C@@H](C)[C@H](OC(=O)C(C)C)[C@@H](O)[C@H]2O)[C@H]1O[C@@H]1O[C@@H](C)[C@H](O)[C@@H](O)[C@H]1O is ____.
Ans: 5

Q: Quick one: CCCCCCCCCCCC(=O)O[C@H]1[C@H](O[C@@H]2[C@H]3OC(=O)CCCCCCCCC[C@H](CCCCC)O[C@@H]4O[C@H](C)[C@H](O)[C@H](O)[C@H]4O[C@H](O[C@H]2C)[C@@H]3O)O[C@@H](C)[C@H](O[C@@H]2O[C@@H](C)[C@H](O)[C@@H](O)[C@H]2O)[C@H]1O[C@@H]1O[C@@H](C)[C@H](O)[C@@H](O)[C@H]1O
Ans: 5

Okay, now this compound:
Q: Fill blank: measured EC50 of the compound CCCCCCCCCCCC(=O)O[C@H]1[C@H](O[C@@H]2[C@H]3OC(=O)CCCCCCCCC[C@H](CCCCC)O[C@@H]4O[C@H](C)[C@H](O)[C@H](O)[C@H]4O[C@H](O[C@H]2C)[C@@H]3O)O[C@@H](C)[C@H](O[C@@H]2O[C@@H](C)[C@H](OC(=O)[C@@H](C)CC)[C@@H](O)[C@H]2O)[C@H]1O[C@@H]1O[C@@H](C)[C@H](O)[C@@H](O)[C@H]1O is ____.
Ans: 5

Source: ChEMBL document CHEMBL1158690
